Target or test system: DNA (cytosine-5)-methyltransferase 1 (Homo sapiens)
Protocol text: Inhibition of human C-terminal domain DNMT1 catalytic domain (351 to 1600 residues) expressed in Escherichia coli BL21-CodonPlus (DE3)-RIL cells assessed as inhibition of methylated dI-dC formation using poly dI-dC and 6 uM [Me-3H]SAM as substrate incubated for 2 hrs by liquid scintillation counting analysis
Value type: IC50 (µM)
Note: unit µM is implicit; provide only the numeric part.

Report IC50 for Nc1nc(=O)n([C@H]2C[C@H](O)[C@@H](CO)O2)cc1CNCC(CC[C@H](N)C(=O)O)C[C@H]1O[C@@H](n2cnc3c(N)ncnc32)[C@H](O)[C@@H]1O (stereo partly specified) please.
6.1

###

Target or test system: DNA (cytosine-5)-methyltransferase 1 (Homo sapiens, UniProt P26358)
Sequence (P26358 whole entry, the tested form may be a part): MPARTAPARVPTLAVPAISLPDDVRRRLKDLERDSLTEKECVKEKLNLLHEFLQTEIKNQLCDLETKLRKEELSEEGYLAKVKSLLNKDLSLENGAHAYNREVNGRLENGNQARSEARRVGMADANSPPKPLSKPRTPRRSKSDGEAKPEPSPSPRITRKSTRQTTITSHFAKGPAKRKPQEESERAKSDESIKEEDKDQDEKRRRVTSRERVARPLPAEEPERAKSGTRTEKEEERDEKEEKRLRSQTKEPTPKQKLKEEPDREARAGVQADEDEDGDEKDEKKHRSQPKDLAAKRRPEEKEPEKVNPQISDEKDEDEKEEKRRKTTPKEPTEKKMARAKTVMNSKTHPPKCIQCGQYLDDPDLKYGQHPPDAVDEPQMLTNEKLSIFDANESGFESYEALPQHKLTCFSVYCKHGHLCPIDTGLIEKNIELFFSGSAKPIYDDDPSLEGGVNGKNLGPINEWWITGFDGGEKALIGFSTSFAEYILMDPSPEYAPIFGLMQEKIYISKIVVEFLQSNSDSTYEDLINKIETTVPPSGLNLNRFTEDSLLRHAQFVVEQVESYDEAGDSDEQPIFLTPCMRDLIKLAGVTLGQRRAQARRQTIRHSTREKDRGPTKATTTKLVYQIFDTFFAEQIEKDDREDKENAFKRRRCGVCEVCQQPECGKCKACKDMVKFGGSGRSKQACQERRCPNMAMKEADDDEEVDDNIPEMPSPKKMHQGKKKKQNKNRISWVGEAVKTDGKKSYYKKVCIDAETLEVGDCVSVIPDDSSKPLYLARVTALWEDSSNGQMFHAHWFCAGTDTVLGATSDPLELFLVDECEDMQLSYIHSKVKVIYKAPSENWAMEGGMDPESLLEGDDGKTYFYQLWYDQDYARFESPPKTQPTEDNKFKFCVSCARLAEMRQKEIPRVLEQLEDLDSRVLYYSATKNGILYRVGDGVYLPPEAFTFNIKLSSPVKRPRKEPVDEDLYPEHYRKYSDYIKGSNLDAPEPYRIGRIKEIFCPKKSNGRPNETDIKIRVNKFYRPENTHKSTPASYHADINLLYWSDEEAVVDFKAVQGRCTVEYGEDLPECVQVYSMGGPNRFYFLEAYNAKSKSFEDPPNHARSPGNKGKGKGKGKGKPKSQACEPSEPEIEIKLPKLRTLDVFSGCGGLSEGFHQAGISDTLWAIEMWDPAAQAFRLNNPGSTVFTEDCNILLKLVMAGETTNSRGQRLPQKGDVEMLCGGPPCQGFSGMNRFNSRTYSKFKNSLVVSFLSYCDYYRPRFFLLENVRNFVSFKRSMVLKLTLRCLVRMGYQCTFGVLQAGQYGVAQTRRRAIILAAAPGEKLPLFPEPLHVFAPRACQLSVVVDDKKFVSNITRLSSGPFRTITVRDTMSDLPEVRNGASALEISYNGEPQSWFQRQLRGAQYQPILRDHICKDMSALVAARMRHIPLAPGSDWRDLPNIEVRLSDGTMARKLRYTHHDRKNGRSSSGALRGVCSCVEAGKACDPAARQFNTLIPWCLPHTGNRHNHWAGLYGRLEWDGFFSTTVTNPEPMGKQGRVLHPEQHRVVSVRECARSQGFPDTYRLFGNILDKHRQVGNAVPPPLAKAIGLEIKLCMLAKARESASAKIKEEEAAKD
Protocol text: Inhibition of human recombinant full-length DNMT1 expressed in Sf9 cells assessed as inhibition of methylated dI-dC formation using poly dI-dC and [Me-3H]SAM as substrate incubated for 2 hrs by liquid scintillation counting analysis
pIC50: −log10 of the molar value.
Binary classification by pIC50, with 5 as an inclusive lower bound for criterion met; all other cases are criterion not met.

Kindly determine if pIC50 recorded for Nc1nc(=O)n([C@H]2C[C@H](O)[C@@H](CO)O2)cc1CNC[C@H]1O[C@@H](n2cnc3c(N)ncnc32)[C@H](O)[C@@H]1O is above or exactly 5.
criterion met

API: above_or_equal(metric=pIC50, cutoff=5) for item Nc1nc(=O)n([C@H]2C[C@H](O)[C@@H](CO)O2)cc1CNCCCC[C@H](N)C(=O)O
criterion met

# check: pIC50 of Nc1nc(=O)n([C@H]2C[C@H](O)[C@@H](CO)O2)cc1CNCC(CC[C@H](N)C(=O)O)C[C@H]1O[C@@H](n2cnc3c(N)ncnc32)[C@H](O)[C@@H]1O (stereo partly drawn) is greater than or equal to 5
criterion met

Check if pIC50 >= 5 (inclusive). Item: Nc1nc(=O)n([C@H]2C[C@H](O)[C@@H](CO)O2)cc1CCCN(CC[C@H](N)C(=O)O)C[C@H]1O[C@@H](n2cnc3c(N)ncnc32)[C@H](O)[C@@H]1O
criterion met

Please tell me: is the compound Nc1nc(=O)n([C@H]2C[C@H](O)[C@@H](CO)O2)cc1CNCC[C@H](N)C(=O)O at or over 5 in terms of pIC50?
criterion not met

Identify whether the reported pIC50 of the following compound is 5 or greater: Nc1nc(=O)n([C@H]2C[C@H](O)[C@@H](CO)O2)cc1CSCCC[C@H]1O[C@@H](n2cnc3c(N)ncnc32)[C@H](O)[C@@H]1O
criterion met

Kindly determine if pIC50 recorded for Nc1nc(=O)n([C@H]2C[C@H](O)[C@@H](CO)O2)cc1CSCCCC[C@H](N)C(=O)O is above or exactly 5.
criterion met

Can NC1=NC(=O)N([C@H]2C[C@H](O)[C@@H](CO)O2)CN1CCCCCN(CC[C@H](N)C(=O)O)C[C@H]1O[C@@H](n2cnc3c(N)ncnc32)[C@H](O)[C@@H]1O be said to have pIC50 at or above 5?
criterion not met

Is reported pIC50 greater than or equal to 5 here: Nc1nc(=O)n([C@H]2C[C@H](O)[C@@H](CO)O2)cc1SCCN(CC[C@H](N)C(=O)O)C[C@H]1O[C@@H](n2cnc3c(N)ncnc32)[C@H](O)[C@@H]1O
criterion met

Hi, just wondering whether Nc1nc(=O)n([C@H]2C[C@H](O)[C@@H](CO)O2)cc1CCSC[C@H]1O[C@@H](n2cnc3c(N)ncnc32)[C@H](O)[C@@H]1O shows pIC50 of 5 or higher.
criterion not met

Say whether Nc1nc(=O)n([C@H]2C[C@H](O)[C@@H](CO)O2)cc1CSC[C@H]1O[C@@H](n2cnc3c(N)ncnc32)[C@H](O)[C@@H]1O shows pIC50 of 5 or more.
criterion not met

meta.source: ChEMBL document CHEMBL5137006
